Hi there, I'd appreciate the recorded solubility kinetic at 1.5 h for every entry that follows.
- procedure text: physchem
- setup conditions: pH 7.4, aqueous buffer, kinetic from dmso stock
- Procedure: The kinetic solubility of test compounds in buffer was evaluated using a 96 well filtration plate format. A 500 μM assay solution in PBS, pH7.4 (or other assay buffer, as needed) was generated form a DMSO stock solution (up to 10 mM). Samples were transferred to a 96 Millipore MultiScreen HTS 96-well Filter plate (Cat# MSSLBPC10) mixed by shaking for 1.5 hours and processed by filtration prior to quantitation by HPLC-UV. Amiodarone and testosterone were used as reference controls.

- cpd smiles: "CC(C)OC(=O)C1=CN(C(=O)NC2CCCCC2)CC(C)(C)c2c1[nH]c1ccccc21"
  solubility kinetic at 1.5 h: "1 to 10 µM"
- cpd smiles: "CC(C)OC(=O)C1=CN(C(=O)N2CCC[C@H](CN3CCCCC3)C2)CC(C)(C)c2c1[nH]c1ccccc21"
  solubility kinetic at 1.5 h: "> 10 µM"
- cpd smiles: "CC(C)OC(=O)C1=CN(C(=O)c2ccc(C(F)(F)F)cc2F)CC(C)(C)c2c1[nH]c1ccccc21"
  solubility kinetic at 1.5 h: "> 10 µM"

Entry `CC(C)OC(=O)C1=CN(C(=O)c2ccc(C(F)(F)F)c(Cl)c2F)CC(C)(C)c2c1[nH]c1ccccc21` ; solubility kinetic at 1.5 h = 1 to 10 µM

###

- procedure text: physchem
- setup conditions: pH 7.4, aqueous buffer, kinetic from dmso stock
measurement type: solubility kinetic at 1.5 h

Would you please look over these solved cases?
- molecule: "CC(C)OC(=O)C1=CN(C(=O)c2ccccc2C(F)(F)F)CC(C)(C)c2c1[nH]c1ccccc21 [Example 64]"
  readout value: "1 to 10 µM"
- molecule: "CC(C)NC(=O)C1CN(C(=O)c2ccc(F)c(F)c2)CC(C)(C)c2c1[nH]c1ccccc21 (stereo not shown) [Example 90]"
  readout value: "> 10 µM"
- molecule: "CC(C)OC(=O)C1=CN(C(=O)c2cccc(Cl)c2)CC(C)(C)c2c1[nH]c1ccccc21 [Example 81]"
  readout value: "1 to 10 µM"

Next:
Entry CC(C)OC(=O)C1=CN(C(=O)c2cccc(OCCN(C)C)c2)CC(C)(C)c2c1[nH]c1ccccc21 [Example 140] ; solubility kinetic at 1.5 h = > 10 µM

###

- test system: human farnesoid X receptor (Homo sapiens, UniProt Q96RI1)
- Construct: CMX-farnesoid X receptor (full length human farnesoid X receptor); expressed in transfected cells; host or cells: CV-1 African Green Monkey Kidney cells
- procedure text: FXR in vitro assays (farnesoid X receptor/ECREx7 co-transfection assay, TR-FRET assay), Table I
- Assay type: cell-based
- setup conditions: read-out: % Efficacy
measurement type: Emax

Would you please look over these solved cases?
- cpd smiles: "Cc1cc(C(=O)N2C=C(C(=O)OC(C)C)c3[nH]c4ccccc4c3C(C)(C)C2)no1"
  Emax: "> 100%"
- cpd smiles: "CC(C)OC(=O)C1=CN(C(=O)NC2CCCCCC2)CC(C)(C)c2c1[nH]c1ccccc21"
  Emax: "> 100%"
- cpd smiles: "CC(C)OC(=O)C1=CN(C(=O)c2cccc(OCc3ccccc3)c2)CC(C)(C)c2c1[nH]c1ccccc21"
  Emax: "> 100%"
- cpd smiles: "CC(C)OC(=O)C1=CN(C(=O)N2CCN(CC(=O)N3CCCC3)CC2)CC(C)(C)c2c1[nH]c1ccccc21"
  Emax: "> 100%"
- cpd smiles: "CC(C)OC(=O)C1=CN(C(=O)N2CCC(N3CCN(C)CC3)CC2)CC(C)(C)c2c1[nH]c1ccccc21"
  Emax: "40 to 60%"
- cpd smiles: "CC(C)OC(=O)C1=CN(C(=O)c2ccc(F)cc2C(F)(F)F)CC(C)(C)c2c1[nH]c1ccccc21"
  Emax: "> 100%"

Next:
Entry `CC(C)OC(=O)C1=CN(C(=O)c2ccc(F)c(F)c2)CC(C)(C)c2c1[nH]c1cc(OC(=O)NCCN(C)C)ccc21` ; Emax = > 100%

###

Hi there, I'd appreciate the recorded EC50 for every entry that follows.
- test system: human farnesoid X receptor (Homo sapiens, UniProt Q96RI1)
- Construct: CMX-farnesoid X receptor (full length human farnesoid X receptor); expressed in transfected cells; host or cells: CV-1 African Green Monkey Kidney cells
- procedure text: FXR in vitro assays (farnesoid X receptor/ECREx7 co-transfection assay, TR-FRET assay), Table I
- Format: cell-based
- setup conditions: agonist activity, one or more of the in vitro assays; read-out: EC50

- cpd smiles: "CC(C)OC(=O)C1=CN(C(=O)c2ccc3c(c2)OCO3)CC(C)(C)c2c1[nH]c1ccccc21"
  test system: "human farnesoid X receptor (Homo sapiens, UniProt Q96RI1)"
  readout value: "10 to 100 nM"
- cpd smiles: "CC(C)OC(=O)C1=CN(C(=O)N[C@H]2CCCNC2)CC(C)(C)c2c1[nH]c1ccccc21"
  test system: "human farnesoid X receptor (Homo sapiens, UniProt Q96RI1)"
  readout value: "1000 to 10000 nM"
- cpd smiles: "CC(C)OC(=O)C1=CN(C(=O)C23C[C@H]4C[C@@H](C2)C[C@@H](C3)C4)CC(C)(C)c2c1[nH]c1ccccc21"
  test system: "human farnesoid X receptor (Homo sapiens, UniProt Q96RI1)"
  readout value: "10 to 100 nM"
- cpd smiles: "CC(C)OC(=O)C1=CN(C(=O)c2cccc(CN3CCN(C(=O)OC(C)(C)C)CC3)c2)CC(C)(C)c2c1[nH]c1ccccc21"
  test system: "human farnesoid X receptor (Homo sapiens, UniProt Q96RI1)"
  readout value: "100 to 1000 nM"
- cpd smiles: "CC(C)OC(=O)C1=CN(C(=O)c2ccccc2)CC(C)(C)c2c1[nH]c1ccccc21"
  test system: "human farnesoid X receptor (Homo sapiens, UniProt Q96RI1)"
  readout value: "1 to 10 nM"

// each molecule listed below needs its EC50
1. CC(C)OC(=O)C1=CN(C(=O)N2CCNCC2)CC(C)(C)c2c1[nH]c1ccccc21
2. CC(C)OC(=O)C1=CN(C(=O)c2ccc(C(F)(F)F)cc2F)CC(C)(C)c2c1[nH]c1ccccc21

Solution:
1: 1000 to 10000 nM; 2: 100 to 1000 nM

###

- test system: human farnesoid X receptor (Homo sapiens, UniProt Q96RI1)
- Construct: CMX-farnesoid X receptor (full length human farnesoid X receptor); expressed in transfected cells; host or cells: CV-1 African Green Monkey Kidney cells
- Sequence (Q96RI1 1-472 isoform Q96RI1-2): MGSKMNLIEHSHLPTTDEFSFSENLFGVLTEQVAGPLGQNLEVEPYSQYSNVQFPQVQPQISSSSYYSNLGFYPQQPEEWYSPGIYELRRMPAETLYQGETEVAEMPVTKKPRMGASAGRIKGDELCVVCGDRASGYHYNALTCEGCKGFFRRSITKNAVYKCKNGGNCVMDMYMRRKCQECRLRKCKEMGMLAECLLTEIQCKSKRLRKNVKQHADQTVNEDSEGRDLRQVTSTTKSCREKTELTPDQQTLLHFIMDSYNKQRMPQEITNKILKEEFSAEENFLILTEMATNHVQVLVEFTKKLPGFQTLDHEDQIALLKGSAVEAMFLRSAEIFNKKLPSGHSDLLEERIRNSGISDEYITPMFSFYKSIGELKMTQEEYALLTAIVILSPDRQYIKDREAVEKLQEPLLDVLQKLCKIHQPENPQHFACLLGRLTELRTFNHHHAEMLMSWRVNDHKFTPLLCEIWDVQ
- Sequence (P19793 1-462 partner): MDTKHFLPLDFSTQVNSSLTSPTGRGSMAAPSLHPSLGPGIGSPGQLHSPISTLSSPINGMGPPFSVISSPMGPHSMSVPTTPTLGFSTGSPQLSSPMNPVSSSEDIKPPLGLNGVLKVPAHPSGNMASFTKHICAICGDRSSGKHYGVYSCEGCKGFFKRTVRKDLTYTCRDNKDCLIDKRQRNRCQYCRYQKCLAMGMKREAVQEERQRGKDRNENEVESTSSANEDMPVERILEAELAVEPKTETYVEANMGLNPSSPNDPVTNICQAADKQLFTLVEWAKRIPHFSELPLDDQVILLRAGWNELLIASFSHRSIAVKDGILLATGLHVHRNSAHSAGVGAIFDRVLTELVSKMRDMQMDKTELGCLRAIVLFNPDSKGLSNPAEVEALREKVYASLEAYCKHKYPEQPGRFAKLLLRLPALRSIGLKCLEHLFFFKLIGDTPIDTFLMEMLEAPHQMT
- procedure text: FXR in vitro assays (farnesoid X receptor/ECREx7 co-transfection assay, TR-FRET assay), Table I
- Type: cell-based
- setup conditions: agonist activity, one or more of the in vitro assays; read-out: EC50
measurement type: EC50

Would you please look over these solved cases?
- cpd smiles: "CCN(CC)C(=O)N1C=C(C(=O)OC(C)C)c2[nH]c3ccccc3c2C(C)(C)C1"
  EC50: "10 to 100 nM"
- cpd smiles: "CC(C)OC(=O)C1=CN(C(=O)N2CCC[C@H](CN3CCOCC3)C2)CC(C)(C)c2c1[nH]c1ccccc21"
  EC50: "1000 to 10000 nM"
- cpd smiles: "CC(C)OC(=O)C1=CN(C(=O)c2ccc3c(c2)nnn3C)CC(C)(C)c2c1[nH]c1ccccc21"
  EC50: "10 to 100 nM"

Entry `CC(C)OC(=O)C1=CN(C(=O)c2ccccc2F)CC(C)(C)c2c1[nH]c1ccccc21` ; EC50 = 10 to 100 nM
